assay-system: EED protein (His6-tagged full-length) binding to H3K27me3 polypeptide (Homo sapiens, UniProt O75530)
Construct: His6-tagged full-length EED protein (441 amino acids)
Sequence (O75530 whole entry): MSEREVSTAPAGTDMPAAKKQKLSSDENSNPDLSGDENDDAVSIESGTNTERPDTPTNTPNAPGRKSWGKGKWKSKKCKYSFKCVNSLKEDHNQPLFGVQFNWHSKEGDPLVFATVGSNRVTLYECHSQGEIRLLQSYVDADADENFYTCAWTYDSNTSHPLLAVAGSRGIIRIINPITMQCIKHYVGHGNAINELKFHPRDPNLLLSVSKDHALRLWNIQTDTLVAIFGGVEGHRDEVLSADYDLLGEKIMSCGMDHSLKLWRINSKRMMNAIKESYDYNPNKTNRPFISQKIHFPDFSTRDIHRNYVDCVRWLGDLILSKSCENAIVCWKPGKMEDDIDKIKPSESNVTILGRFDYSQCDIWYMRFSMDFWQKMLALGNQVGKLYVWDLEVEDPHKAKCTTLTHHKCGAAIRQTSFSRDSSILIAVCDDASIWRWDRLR
assay-summary: AlphaScreen evaluation of blocking the binding of EED to H3K27Me3
test-context: EED 60 nM, biotinylated H3K27me3 75 nM, 30 minutes incubation
Procedure: Firstly, compound solutions of different concentration gradients were prepared. Compound powder was dissolved in DMSO to prepare a mother liquor. 1.5 μl of the mother liquor of the compound was taken and added into 198.5 μl of a reaction buffer (25 mM HEPES (pH 8.0), 50 mM NaCl, 0.015% Tween 20, 0.5% BSA). The mixture was mixed uniformly. […] Finally, the detection was carried out with the AlphaScreen method. […] The signal was read using the AlphaScreen detector on the Spectra max i3. […]
measured-parameter: IC50 (µM)

Illustrative cases are given below, each with its answer.
INSERT INTO measurements (structure_notation, units_of_measure, data_value) VALUES
  ('O=S1(=O)C=Cc2cc(-c3cnc(NCc4c(F)ccc5c4CCO5)n4cnnc34)ccc21', 'µM', 0.0049),
  ('Fc1ccc2c(c1CNc1ncc(-c3cnc4ccnn4c3)c3nncn13)CCO2', 'µM', 0.0057),
  ('Fc1ccc2c(c1CNc1ncc(-c3cccn4cc(C(F)(F)F)nc34)c3nncn13)CCO2', 'µM', 0.0035),
  ('Cc1cnc2c(-c3cnc(NCc4c(F)ccc5c4CCO5)n4cnnc34)cc(F)cn12', 'µM', 0.0074),
  ('CCOC(=O)c1c(C)nc2c(-c3cnc(NCc4c(F)ccc5c4CCO5)n4cnnc34)cc(F)cn12', 'µM', 0.0452),
  ('CC1=C(F)c2cc(-c3cnc(NCc4c(F)ccc5c4[C@H]4C[C@H]4O5)n4cnnc34)ccc2S1(=O)=O', 'µM', 0.0042),
  ('Fc1cc(-c2cnc(NCc3c(F)ccc4c3CCO4)n3cnnc23)c2ncc(F)n2c1', 'µM', 0.0052),
  ('Cc1ccc(-c2cnc(NCc3c(F)ccc4c3CCO4)n3cnnc23)c2ncc(C(=O)O)n12', 'µM', 0.0054);

a = Cc1cn2cc(F)cc(-c3cnc(NCc4c(F)ccc5c4CCO5)n4cnnc34)c2n1
b = COC(=O)c1ccc(-c2cnc(NCc3c(F)ccc4c3CCO4)n3cnnc23)c2nccn12
c = OCc1ccc(-c2cnc(NCc3c(F)ccc4c3CCO4)n3cnnc23)c2nccn12
Query: Could you please order the items by IC50, going from the lowest number to the highest? Your answer should be the labels, listed in the requested order.
Reply: a, b, c
(a: 0.003 µM, b: 0.008 µM, c: 0.021 µM)

a = CC1=C(F)c2cc(-c3cnc(NCc4c(F)ccc5c4CCO5)n4cnnc34)ccc2S1(=O)=O
b = O=S1(=O)C=c2ccc(-c3cnc(NCc4c(F)ccc5c4[C@H]4C[C@H]4O5)n4cnnc34)cc2=C1
c = Cc1ccc(-c2cnc(NCc3c(F)ccc4c3CCO4)n3cnnc23)c2ncc(CC(N)=O)n12
d = CCOC(=O)c1c(O)nc2c(-c3cnc(NCc4c(F)ccc5c4CCO5)n4cnnc34)cccn12
Query: # rank by IC50, ascending (min first) Response format: the labels, sorted as the prompt asks.
Reply: a, b, c, d

A = Cc1cnc2c(-c3cnc(NCc4c(F)ccc5c4CCO5)n4cnnc34)cccn12
B = Cc1ccc(-c2cnc(NCc3c(F)ccc4c3CCO4)n3cnnc23)c2ncc(C(C)C)n12
Query: Between these two entries, A and B , state which has the higher IC50. Identify your pick by its label.
Reply: A
(A: 0.0046 µM, B: 0.0028 µM)

###

System: KARPAS-422 cells
assay-summary: Cell proliferation analysis, KARPAS-422, 13 days, CellTiter-Glo
Type: cell-based
test-context: Homo sapiens, 312 h
measured-parameter: IC50 (µM)

P = Fc1ccc2c(c1CNc1ncc(-c3cccc4nn[nH]c34)c3nncn13)CCO2
Q = CC1=C(F)c2cc(-c3cnc(NCc4c(F)ccc5c4CCO5)n4cnnc34)ccc2S1(=O)=O
R = CC1=Cc2cc(-c3cnc(NCc4c(F)ccc5c4[C@H]4C[C@H]4O5)n4cnnc34)ccc2S1(=O)=O
S = Cc1ccc(-c2cnc(NCc3c(F)ccc4c3CCO4)n3cnnc23)c2nc(C(=O)N(C)C)cn12
T = Cc1ccc(-c2cnc(NCc3c(F)ccc4c3CCO4)n3cnnc23)c2ncnn12
Query: Highest IC50 first, then in falling order down to the smallest. The reply should contain the labels ordered as requested.
Reply: R, Q, S, T, P

###

System: KARPAS-422 cells
assay-summary: Cell proliferation analysis, KARPAS-422, 13 days, CellTiter-Glo
Type: cell-based
test-context: Homo sapiens, 312 h
measured-parameter: IC50 (µM)

INSERT INTO results (compound, data_value) VALUES
  ('Cc1cn2cc(F)cc(-c3cnc(NCc4c(F)ccc5c4CCO5)n4cnnc34)c2n1', 0.0013);

P = CC1=C(C)S(=O)(=O)c2c(F)cc(-c3cnc(NCc4c(F)ccc5c4CCO5)n4cnnc34)cc21
Q = CN(C)C(=O)c1ccc(-c2cnc(NCc3c(F)ccc4c3CCO4)n3cnnc23)c2nccn12
R = CC1CN(c2ccc(-c3cnc(NCc4c(F)ccc5c4CCO5)n4cnnc34)c3ncnn23)CCO1 (centres unmarked)
S = NC(=O)c1cnc2c(-c3cnc(NCc4c(F)ccc5c4CCO5)n4cnnc34)cc(F)cn12
Query: Sort entries by IC50 from minimum to maximum value. List the labels, following the order given in the request.
Reply: R, Q, S, P
(R: 0.0005 µM, Q: 0.0013 µM, S: 0.0046 µM, P: 0.0087 µM)

###

assay-system: EED protein (His6-tagged full-length) binding to H3K27me3 polypeptide (Homo sapiens, UniProt O75530)
Construct: His6-tagged full-length EED protein (441 amino acids)
assay-summary: AlphaScreen evaluation of blocking the binding of EED to H3K27Me3
test-context: EED 60 nM, biotinylated H3K27me3 75 nM, 30 minutes incubation
measured-parameter: IC50 (µM)

INSERT INTO assay_data (structure_notation, data_value) VALUES
  ('CCOC(=O)c1cnc2c(-c3cnc(NCc4c(F)ccc5c4CCO5)n4cnnc34)cc(F)cn12', 0.0221);

a = O=S1(=O)C(F)=Cc2cc(-c3cnc(NCc4c(F)ccc5c4[C@H]4C[C@H]4O5)n4cnnc34)ccc21
b = O=S1(=O)C=Cc2cc(-c3cnc(NCc4c(F)ccc5c4CCO5)n4cnnc34)cc(F)c21
c = Cc1cc(-c2cnc(NCc3c(F)ccc4c3CCO4)n3cnnc23)c2nc(C(F)(F)F)cn2c1
d = O=S1(=O)C=C(F)c2cc(-c3cnc(NCc4c(F)ccc5c4[C@H]4C[C@H]4O5)n4cnnc34)ccc21
Query: Rank the items in ascending order with respect to IC50. Your reply should list the labels following the order given in the request.
Reply: b, c, d, a
(b: 0.0045 µM, c: 0.0157 µM, d: 0.123 µM, a: 0.566 µM)

###

System: KARPAS-422 cells
assay-summary: Cell proliferation analysis, KARPAS-422, 13 days, CellTiter-Glo
Type: cell-based
test-context: Homo sapiens, 312 h
measured-parameter: IC50 (µM)

a = Cc1ccc(-c2cnc(NCc3c(F)ccc4c3CCO4)n3cnnc23)c2ncc(CC#N)n12
b = Cc1ccc(-c2cnc(NCc3c(F)ccc4c3CCO4)n3cnnc23)c2ncc(C(N)=O)n12
Query: Given a and given b , which shows the smaller recorded IC50? # respond with the chosen item's label
Reply: a

I = CCc1cnc2c(-c3cnc(NCc4c(F)ccc5c4CCO5)n4cnnc34)ccc(C)n12
II = Cc1ccc(-c2cnc(NCc3c(F)ccc4c3[C@H]3C[C@H]3O4)n3cnnc23)c2nccn12
III = Fc1ccc2c(c1CNc1ncc(-c3cccn4cnnc34)c3nncn13)[C@H]1C[C@H]1O2
IV = Fc1ccc2c(c1CNc1ncc(-c3cccn4ccnc34)c3nncn13)CCO2
V = Fc1cc(-c2cnc(NCc3c(F)ccc4c3CCO4)n3cnnc23)c2ncc(F)n2c1
Query: Please produce an ascending ranking of these compounds based on IC50. Form entry: ranked labels (order as requested).
Reply: II, IV, I, III, V

P = Fc1ccc2c(c1CNc1ncc(-c3ccc(N4CCC(N5CCOCC5)CC4)n4ncnc34)c3nncn13)CCO2
Q = CCOC(=O)c1cnc2c(-c3cnc(NCc4c(F)ccc5c4CCO5)n4cnnc34)cccn12
R = COc1ccc(-c2cnc(NCc3c(F)ccc4c3CCO4)n3cnnc23)c2ncc(C#N)n12
S = O=S1(=O)C(F)=Cc2cc(-c3cnc(NCc4c(F)ccc5c4[C@H]4C[C@H]4O5)n4cnnc34)ccc21
T = Cc1ncc(-c2cnc(NCc3c(F)ccc4c3CCO4)n3cnnc23)c2ncnn12
Query: Give the ascending ranking of the items by reported IC50. Could you list the labels in the order requested?
Reply: P, T, Q, R, S

A = O=S1(=O)C=Cc2cc(-c3cnc(NCc4c(F)ccc5c4CCO5)n4cnnc34)ccc21
B = COC(=O)Cc1cnc2c(-c3cnc(NCc4c(F)ccc5c4CCO5)n4cnnc34)ccc(C)n12
C = Fc1ccc2c(c1CNc1ncc(-c3ccc4nccn4c3)c3nncn13)CCO2
D = Cc1ccc(-c2cnc(NCc3c(F)ccc4c3CCO4)n3cnnc23)c2nncn12
Query: In this exercise, place the 4 compounds in ascending sequence of their recorded IC50. Return the labels ranked in the requested order, please.
Reply: D, A, B, C
(D: 0.0002 µM, A: 0.0007 µM, B: 0.001 µM, C: 0.0941 µM)
